- protocol description: gradient 5% acetonitrile 3 min, to 50% in 2 min, to 85% in 15 min, held 3 min, 100 µL/min
- protocol conditions: column: Zorbax Extend-C18 2.1 x 50 mm; eluents: water / acetonitrile, 0.1% formic acid

| compound | RP-LC retention time, s |
| --- | --- |
| CCN1CCN(CCCNS(=O)(=O)c2cccc(-c3nc(-c4ccc(C)cc4)no3)c2)CC1 | 690 |
| CCOC(=O)c1c(N2C(=O)CC(Sc3ccccc3C(=O)O)C2=O)sc(C)c1C (stereo not given) | 821 |
| Cc1ccnc(OCC(=O)NC(C)C)n1 | 586 |
| Cn1c(NC(=O)c2ccc(S(=O)(=O)N3CCOCC3)cc2)cc(=O)n(C)c1=O | 612 |
| CCc1nn2c(CNC(=O)c3ccccc3Br)c(-c3ccccc3)nc2s1 | 903 |
| COC(=O)CNC(=O)NC(C)C(=O)N1CCc2ccccc21 (stereo not given) | 662 |
| O=C(Nc1ccccc1Cl)C1CCCN(c2ncnc3c2nc2n3CCCCC2)C1 (stereo not given) | 851 |
| CCCn1cc(C(=O)NCc2ccc(C)cc2)c(S(=O)(=O)N2CCC(C)CC2)n1 | 1140 |
| O=C(NCCCN1CCOCC1)c1ccc2ccnc(N3CCN(c4ccccc4F)CC3)c2c1 | 595 |
| NCCC1CCN(C(=O)Nc2cc(F)cc(F)c2)CC1 | 599 |

---

- protocol description: gradient 5% acetonitrile 3 min, to 50% in 2 min, to 85% in 15 min, held 3 min, 100 µL/min
- protocol conditions: column: Zorbax Extend-C18 2.1 x 50 mm; eluents: water / acetonitrile, 0.1% formic acid
# RP-LC retention time values compiled below
assay readout: RP-LC retention time (s)

| compound | meas value |
| --- | --- |
| CC(C)Cn1c(=O)c(N2CCN(C(=O)c3ccccc3Cl)CC2)nc2ccncc21 | 682 |
| COc1ccc(-c2nc(C3CC(=O)N(c4ccc(C)cc4)C3)no2)cn1 (centres undefined) | 946 |
| COc1cc(NC(=O)N2CCc3c(c(C(=O)N4CCCC4)nn3C)C2)cc(OC)c1 | 693 |
| COc1ccc(C(=O)NCC(=O)Nc2nc3ccccc3[nH]2)cc1 | 606 |
| CC1Cc2ccccc2N1C(=O)CCC(=O)N1CCN(c2cc(=O)n(C(C)C)c(=O)n2C(C)C)CC1 (centres undefined) | 890 |
| O=C(NCc1ccc2c(c1)OCO2)c1nc(-c2ccnc(N3CCCCC3)c2)no1 | 691 |
| CCCc1nnsc1C(=O)N1CC(c2nc(Cc3ccccc3OC)no2)C1 | 898 |
| CCC(NC(=O)c1cn2ccc(C)cc2n1)c1cccs1 (centres undefined) | 685 |
| Cc1cn(C)c(CC(=O)NC2CCCCCC2)c1C(=O)O | 765 |
| CC(NC(=O)C1CCN(C(=O)c2ncn3c2COC(c2ccc(F)cc2)C3)CC1)c1ccc(F)cc1 (centres undefined) | 790 |
| COc1ccc(NC(=O)C2CC(=O)N(c3n[nH]c4cccc(F)c34)C2)c(OC)c1 (centres undefined) | 713 |
| CCCN1C(=O)NC2(CCN(C(=O)Nc3ccccc3C(F)(F)F)CC2)C1=O | 705 |
| CO[C@H]1C(=O)N(C2CCN(S(=O)(=O)c3cccnc3)CC2)[C@H]1c1ccncc1 | 579 |
| CNC(=O)C1Cc2ccccc2N1S(=O)(=O)c1cccc(C(F)(F)F)c1 (centres undefined) | 802 |
| COc1ccc(N2C=C(C(=O)N3CCOCC3)S(=O)(=O)c3ccc(F)cc32)cc1Cl | 762 |
| COc1ccc(C(=O)NCCc2c[nH]c3ccc(F)cc23)cc1OC | 758 |
| CCn1cc(-c2nc(C(=O)Nc3cc(OC)ccc3OC)cs2)c2cccnc21 | 1170 |
| COCCCNC(=O)N1CCCN(c2nc3cc(F)ccc3n3cccc23)CC1 | 613 |
| CCOC(=O)c1nc(N(C)c2cccc(Cl)c2)c2ccccc2n1 | 982 |

---

- protocol description: gradient 5% acetonitrile 3 min, to 50% in 2 min, to 85% in 15 min, held 3 min, 100 µL/min
- protocol conditions: column: Zorbax Extend-C18 2.1 x 50 mm; eluents: water / acetonitrile, 0.1% formic acid
Parameter threshold = 800 s. Response is criterion met when RP-LC retention time meets or exceeds it, else criterion not met.

| compound | category |
| --- | --- |
| CN(C)c1cccc(-c2nc(C3CC(=O)N(c4ccccc4)C3)no2)c1 (centres undefined) | criterion met |
| CC(NC(=O)C1CCN(S(=O)(=O)c2ccc(C#N)cc2)CC1)C(=O)N1CCCc2ccccc21 (centres undefined) | criterion not met |
| CCN1C(=O)COc2ccc(-c3noc(C4CC(=O)N(c5ccc(OC)cc5)C4)n3)cc21 (centres undefined) | criterion met |
| O=C(NCc1ccccc1Cl)C1CCN(c2cncnc2N2CCCC2)CC1 | criterion not met |
| CC(CCc1ccccc1)NC(=O)CN1CCCN(Cc2cccc(Cl)c2)S1(=O)=O (centres undefined) | criterion met |
| CCC(C(=O)NCc1ccc2c(c1)ncn2CC)c1ccccc1 (centres undefined) | criterion not met |
| CC(C)NC(=O)c1ccc(OCC2CCN(C(=O)c3ccc(F)cc3)CC2)cc1 | criterion met |
| CCC(=O)N1CCc2cc(N3CC(C(=O)Nc4cccc(F)c4)CC3=O)ccc21 (centres undefined) | criterion not met |
| O=C(NCc1nn(Cc2ccccc2)c2ccccc12)c1ccoc1 | criterion met |

---

# RP-LC retention time values compiled below
- protocol description: gradient 5% acetonitrile 3 min, to 50% in 2 min, to 85% in 15 min, held 3 min, 100 µL/min
- protocol conditions: column: Zorbax Extend-C18 2.1 x 50 mm; eluents: water / acetonitrile, 0.1% formic acid
assay readout: RP-LC retention time

| molecule | meas value |
| --- | --- |
| COc1cc(OC)cc(-c2nc(-c3ccc(NS(=O)(=O)c4cccs4)cc3)no2)c1 | 1120 s |
| CCOC(=O)CNC(=O)N1CCN(c2nc3ccccc3n2Cc2ccccc2)CC1 | 656 s |
| CCOc1cc(=O)n2c(c1C(=O)NC(C)C)CCCCC2 | 623 s |
| CCOc1ccc(N2CCn3c2nc2c3c(=O)n(CC(=O)O)c(=O)n2C)cc1 | 689 s |
| CC1CCN(C(=O)Cc2nnc3cc(-c4nc(C(C)C)no4)ccn23)CC1 | 770 s |
| CCCCn1c(CN2CCOCC2)nc2cc(NC(=O)CC(C)C)ccc21 | 665 s |
| Cc1ccc(OCC(=O)Nc2ccc(-c3nc(-c4cc(C)ccc4C)co3)cc2)cc1 | 888 s |
| COc1ccc(NC(=O)CN2C(=O)NC3(CCC(C)CC3)C2=O)c(OC)c1 (stereo not given) | 827 s |
| Cc1ccc(C(=O)Nc2cc(-c3cccs3)no2)cc1 | 993 s |
| CC(C)Cn1c(=O)c(C(=O)NCCN2CCCCC2)nc2cccnc21 | 552 s |
| O=C(NCc1ccc(Cl)cc1)C1CCN(c2cnc3nccnc3c2)CC1 | 713 s |
| COc1ccc(-c2cn3c(CC(=O)N(Cc4ccco4)C4CCCCC4)csc3n2)cc1OC | 890 s |
| O=c1c2ccccc2n(Cc2nc(-c3cccc(Cl)c3)no2)c(=O)n1CC1CCCO1 (stereo not given) | 1110 s |
| CCc1noc(NC(C)=O)c1-c1ccc(OC)c(S(=O)(=O)NC2CCCCC2)c1 | 804 s |
| Cn1cnc(S(=O)(=O)N2CCC(C(=O)Nc3ccccc3)CC2)c1 | 675 s |
| CCOC(=O)N1CCN(c2ncc(S(=O)(=O)c3ccc(Cl)cc3)c(N)n2)CC1 | 910 s |
| Cc1ccccc1Nc1c(-c2ccc(N3CCOCC3)cc2)nc2ccc(Br)cn12 | 795 s |
| C/C(=N\Nc1nc2ccccc2s1)c1ccncn1 | 895 s |
| CCOC(=O)c1noc2ncnc(NC3CCN(Cc4ccccc4)CC3)c12 | 616 s |
| COC(=O)c1nnn(-c2ccc(C)cc2)c1C(=O)OC | 623 s |

---

- protocol description: gradient 5% acetonitrile 3 min, to 50% in 2 min, to 85% in 15 min, held 3 min, 100 µL/min
- protocol conditions: column: Zorbax Extend-C18 2.1 x 50 mm; eluents: water / acetonitrile, 0.1% formic acid

| compound | unit info | RP-LC retention time |
| --- | --- | --- |
| CCn1cc(C2=CCN(C(=O)Nc3ccc4c(c3)OCCO4)CC2)c2cccnc21 | s | 789 |
| COCCNC(=O)c1cc2c(=O)n(Cc3ccccc3)ccc2s1 | s | 719 |
| O=C(Nc1cccc(-c2nnc3n2CCCC3)c1)c1ccc2c(c1)OCO2 | s | 679 |
| CCCCn1cc(S(=O)(=O)Nc2cccc(F)c2)c2cccnc21 | s | 936 |
| COc1ccc(-c2cc3nn(CC(=O)Nc4c(C)cccc4C)c(=O)n3c(C)n2)cc1 | s | 909 |
| CCOC(=O)c1c(C)[nH]c(CCC(=O)NCC2CCCO2)c1C (stereo not drawn) | s | 686 |
| COc1ccc(-c2noc(C3CC(=O)N(c4cc(Cl)ccc4OC)C3)n2)cc1 (stereo not drawn) | s | 950 |
| CCC(=O)NCc1nc2c(n1CC)CN(C(=O)c1ccc(Br)cc1)CC2 | s | 606 |
| CCc1nnc2nc(N3CCN(C(=O)c4ccc(Cl)s4)CC3)cc(C)n12 | s | 638 |
| Cc1cc(N2CCN(C)CC2)nc2ccc(NC(=O)C(C)Oc3ccc(Cl)cc3Cl)cc12 (stereo not drawn) | s | 690 |
| Cc1nn(CC(=O)NCc2ccco2)c(=O)c2c(-n3cccc3)n(-c3ccccc3)nc12 | s | 881 |
| Cc1ccc(C(=O)Nc2nc(-c3ccc4c(c3)NC(=O)CO4)cs2)cc1 | s | 873 |
| Cc1ccc(N2CCC(NC(=O)Nc3ccc(C)c(C)c3)C2=O)cc1 (stereo not drawn) | s | 902 |
| CC1CCN(C(=O)c2ccc(OCC3CCCN(C(=O)c4ccc(F)cc4)C3)cc2)CC1 (stereo not drawn) | s | 995 |
| COc1cccc(-c2nc(C3CCN(C(=O)c4cc5ccccc5[nH]4)CC3)no2)c1 | s | 1040 |
| COc1ccc(N2CCN(c3ccc4cc(S(=O)(=O)N5CCCC5)ccc4n3)CC2)cc1 | s | 855 |
| COC(=O)c1c(C)[nH]c(C(=O)N2CCC(CC(=O)NC(c3cccs3)C(C)C)CC2)c1C (stereo not drawn) | s | 805 |
| O=C1NCCCCCN(C(=O)c2ccc(Cn3cncn3)o2)[C@H]2CCC[C@@H]12 | s | 608 |
| CC(=O)c1cccc(NC(=O)C2CC(=O)N(c3ccc4c(c3)CCN4C(C)=O)C2)c1 (stereo not drawn) | s | 668 |
| COc1ccc(Cc2nc3nccc(-c4ccco4)n3n2)cc1 | s | 855 |
| CCN(CC)C(=O)c1ccc2c(c1)N(CC(=O)NCc1ccc3c(c1)OCO3)C(=O)C1CCCCN21 (stereo not drawn) | s | 826 |
| COc1ccc(NC(=O)C2CCN(c3cc(N4CCSCC4)ncn3)CC2)cc1OC | s | 627 |
| CCC(C)NC(=O)Cn1c2ccccc2c2ncn(Cc3nc(-c4ccccc4)no3)c(=O)c21 (stereo not drawn) | s | 882 |
| CC(C)NC(=O)N1CCC(c2noc(-c3ccccc3)n2)C1 (stereo not drawn) | s | 775 |
| CN1c2cc(Cl)ccc2C(=O)NC12CCN(C(=O)NCc1cccc(F)c1)CC2 | s | 1010 |
| COc1ccc(CNC(=O)c2cc(-c3ccncc3)cn2C)cc1OC | s | 605 |
| CC(C)n1cnc2ccc(-c3noc(-c4ccccc4)n3)cc21 | s | 793 |
| CCOC(=O)c1c(C)[nH]c(C(=O)N2CCC(C(C)C(=O)NCc3ccc(N(C)C)cc3)CC2)c1C (stereo not drawn) | s | 635 |
| Cc1ccc(C2c3[nH]c4ccccc4c3CCN2C(=O)C2CCC2)cc1 (stereo not drawn) | s | 1200 |
| Cc1noc(-c2cccc(OC3CN(C(=O)c4ccoc4)C3)c2)n1 | s | 787 |
| CC(Oc1ccc(=O)n(-c2ccc(F)cc2)n1)C(=O)Nc1ccccc1F (stereo not drawn) | s | 772 |
| C#CCSc1nc2ccc([N+](=O)[O-])cc2s1 | s | 935 |
| Cc1ccc(-c2nc3cccnc3n2CCN2CCN(C(=O)NC3CCCC3)CC2)cc1 | s | 627 |
| CCc1ccc(S(=O)(=O)N2CCc3nc(-c4ccccc4)ncc3C2)cc1 | s | 1160 |
| CCOC(=O)N1CCC(NC(=O)C2CCCN(c3ncnc4c3oc3ccccc34)C2)CC1 (stereo not drawn) | s | 679 |
| O=C(Nc1ccc(OCC(=O)N2CCN(c3ccccc3F)CC2)nc1)C1CC1 | s | 648 |
| CC(C)(C)C(=O)N1CCCC(c2nc(CCNC(=O)C3CC3)cs2)C1 (stereo not drawn) | s | 710 |
| Cn1c(N2CCC(C(=O)N3CCN(c4ccccc4F)CC3)CC2)cc(=O)n(C)c1=O | s | 716 |
